Molecular target: T1, cynomolgus TREM-1 (cTREM-1) protein (cynomolgus monkey)
T1 construct: also called cyno TREM-1
T1 chain: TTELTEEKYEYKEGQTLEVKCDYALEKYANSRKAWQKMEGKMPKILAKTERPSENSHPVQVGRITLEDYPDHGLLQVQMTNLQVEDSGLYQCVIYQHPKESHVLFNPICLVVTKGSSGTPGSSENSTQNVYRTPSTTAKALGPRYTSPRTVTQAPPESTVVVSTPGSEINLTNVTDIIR
Test: SPR, mAb captured by anti-Fc, cTREM-1 as analyte
assay-endpoint: Kd (nM)
Respond numerically; units are nM and should not be typed.

Sample answers from the record:
- binder: "mAb 0048 (antibody, V domains shown, also called 14F11A1B1; 14F11) VH: EVQLVESGGGLVQPKGSLKLSCAASGFTFNTYAMHWVRQAPGKGLEWVARIRTKSNNYATYYVDSVKDRITISRDDSQSMLYLQMNNLKTEDTAMYYCVRDMGIRRQFAYWGQGTLVTVSA VL: DIVLTQSPASLAVSLGQRATISCRASESVDSFGISFMHWYQQSPGQPPKLLIYRASNLESGIPARFSGSGSRTDFTLTINPVEADDVATYYCQQSNEDPYTFGGGTKLEIKR"
  Kd (nM): 1.2
- binder: "mAb 0122 (antibody, human IgG4 S228P, kappa, V domains shown, Second humanised TREM-1 antibody; also called 14F113/14F69 hz variant LC M4L) VH: EVQLVESGGGLVQPGGSLKLSCAASGFTFSTYAMHWVRQASGKGLEWVGRIRTKSSNYATYYAASVKGRFTISRDDSKNTAYLQMNSLKTEDTAVYYCTRDMGQRRQFAYWGQGTLVTVSS VL: DIVLTQSPDSLAVSLGERATINCRASESVDTFDYSFLHWYQQKPGQPPKLLIYRASNLESGVPDRFSGSGSGTDFTLTISSLQAEDVAVYYCQQSNEDPYTFGQGTKLEIKR"
  Kd (nM): 0.97

Pending binder:
Complete the entry with Kd for mAb 0067 (antibody, V domains shown, also called 14F11A1B1 (recombinant)) VH: EVQLVESGGGLVQPKGSLKLSCAASGFTFNTYAMHWVRQAPGKGLEWVARIRTKSNNYATYYVDSVKDRITISRDDSQSMLYLQMNNLKTEDTAMYYCVRDMGIRRQFAYWGQGTLVTVSA VL: DIVLTQSPASLAVSLGQRATISCRASESVDSFGISFMHWYQQSPGQPPKLLIYRASNLESGIPARFSGSGSRTDFTLTINPVEADDVATYYCQQSNEDPYTFGGGTKLEIKR
4.7
